Cited source: patent US9504676B2

tested on: RBL-2H3 cells; experiment: cells; type: cell-based, rat; conditions: Rattus norvegicus; RBL-2H3 cells; read-out: Degran. IC50: concentration inhibiting mast cell degranulation by 50%
measurement label: IC50

Exam item: Would you kindly share the measured IC50 for COc1ccc(C2C(C(=O)c3ccc(F)cc3)=C(O)C(=O)N2CCN2CCOCC2)cc1OC (centres unmarked) ?
Marked response: > 10 µg/mL

Exam item: Given the molecule COc1cc(C2C(C(=O)c3ccc(Cl)cc3)=C(O)C(=O)N2CCCN2CCOCC2)cc(OC)c1OC (centres unmarked) , what is its reported IC50?
Marked response: > 10 µg/mL

Exam item: For the molecule COc1cc(C2C(C(=O)c3cccs3)=C(O)C(=O)N2CCc2ccccc2)cc(Br)c1O (centres unmarked) , what IC50 is on record?
Marked response: > 10 µg/mL

Exam item: What value of IC50 has been recorded for this entry: COc1ccc(C2C(C(=O)c3ccc(Cl)cc3)=C(O)C(=O)N2CCN2CCOCC2)cc1OC (centres unmarked)
Marked response: > 10 µg/mL

Exam item: Record request: IC50 value, item COc1ccc(C2C(C(=O)c3ccc(C)cc3)=C(O)C(=O)N2CCN2CCOCC2)c(OC)c1 (centres unmarked)
Marked response: > 10 µg/mL

Exam item: Name the reported IC50 value associated with the molecule CC(C)c1ccc(C2C(C(=O)c3ccc(F)cc3)=C(O)C(=O)N2CCCN2CCOCC2)cc1 (centres unmarked)
Marked response: > 10 µg/mL

Exam item: Data request, read-out IC50, for CCOC(=O)c1ccc(NC(=O)CSc2nnc(-c3ccco3)c(-c3ccco3)n2)cc1
Marked response: ~5 µg/mL

Exam item: Query: IC50; subject: COc1ccc(OCC(=O)NCc2cc(-c3nn(C)c(=O)c4ccccc34)ccc2C)cc1
Marked response: ~10 µg/mL

Exam item: Endpoint output: IC50 of CCN(CC)CCN1C(=O)C(O)=C(C(=O)c2ccc(C)cc2)C1c1cc(OC)ccc1OC (centres unmarked) . Value?
Marked response: > 10 µg/mL

Exam item: Look up IC50: O=C(Nc1ccccc1C(=O)N1CCCC1)c1ccc(CN2CCc3ccccc3C2)cc1
Marked response: > 10 µg/mL

Exam item: So what does the record say about IC50 for COc1ccc(C2(CNC(=O)c3ccc(NC(=O)c4ccco4)cc3)CCOCC2)cc1 ?
Marked response: > 10 µg/mL

Exam item: Return reported IC50; argument: CCN1C2=C(C(=O)CCC2)C(c2ccc(OCc3ccc(C)cc3)c(Cl)c2)C2=C1CCCC2=O
Marked response: > 10 µg/mL

Exam item: Sample COc1cccc2cc(C(=O)C3=C(O)C(=O)N(CCCn4ccnc4)C3c3ccccn3)oc12 (centres unmarked) — what was its IC50?
Marked response: > 10 µg/mL

Exam item: Value lookup for IC50; key = CCOC(=O)C1CCN(C(=O)c2ccc(CN(c3ccc(C)c(C)c3)S(C)(=O)=O)cc2)CC1
Marked response: > 10 µg/mL

Exam item: # lookup: IC50 of COc1cccc(C2C(C(=O)c3ccc(C)cc3)=C(O)C(=O)N2CCCN2CCOCC2)c1 (centres unmarked)
Marked response: > 10 µg/mL

Exam item: If you can, please state the reported IC50 value of CCOC(=O)c1sc(N2C(=O)C(O)=C(C(=O)c3ccccc3)C2c2ccc(OC)cc2)nc1C (centres unmarked) .
Marked response: > 10 µg/mL

Exam item: Name the recorded IC50 for Cc1ccc(-c2nnc(N3CCN(C(=O)CSc4nc(C)cc(C)n4)CC3)c3ccccc23)cc1 .
Marked response: ~5 µg/mL

Exam item: Which IC50 reading was recorded for the molecule COc1cccc(C2C(C(=O)c3ccccc3)=C(O)C(=O)N2CCCN2CCOCC2)c1OC (centres unmarked) ?
Marked response: > 10 µg/mL

Exam item: Can you look up the measured IC50 of Cc1ccc(C(=O)C(C)OC(=O)c2ccc3c(c2)C(=O)C(c2ccc(C)c(Cl)c2)C3=O)cc1 (centres unmarked) for me?
Marked response: > 10 µg/mL

Exam item: Consider the molecule shown here: CCOC(=O)c1ccc(NC(=O)CC2C(=O)N(c3ccc(Cl)cc3)C(=S)N2Cc2cccnc2)cc1 (centres unmarked) What is its recorded IC50?
Marked response: ~2 µg/mL

Exam item: # query: IC50 of entry Cc1cc(C(=O)Nc2ccccc2C(=O)O)ccc1NC(=O)COc1ccc(C(C)C)cc1
Marked response: ~10 µg/mL

Exam item: Param item = O=C(C1=C(O)C(=O)N(CCCN2CCOCC2)C1c1ccncc1)c1ccc2c(c1)OCCO2 (centres unmarked) ; retrieve measured IC50.
Marked response: ~10 µg/mL

Exam item: What IC50 value was documented for this molecule, COc1ccc(C)cc1NC(=O)c1ccc(CN2CCC(Cc3ccccc3)CC2)cc1 ?
Marked response: > 10 µg/mL

Exam item: IC50 for CCOC(=O)c1ccc(N2C(=O)C(O)=C(C(=O)c3ccccc3)C2c2ccc(ON)cc2OC)cc1 (centres unmarked) ?
Marked response: > 10 µg/mL

Exam item: Consider the molecule shown here: O=C1c2ccc(Oc3ccc4c(c3)C(=O)N(CC3CCCO3)C4=O)cc2C(=O)N1CC1CCCO1 (centres unmarked) What is its recorded IC50?
Marked response: > 10 µg/mL

Exam item: Could you tell me which IC50 is on file for O=C(CCCN1C(=O)c2ccccc2C1=O)Nc1sc2c(c1C(=O)NCC1CCCO1)CCC2 (centres unmarked) ?
Marked response: > 10 µg/mL

Exam item: Which IC50 is reported for this molecule? COc1ccc(OC)c(C2C(C(=O)c3ccccc3)=C(O)C(=O)N2CCCn2ccnc2)c1 (centres unmarked)
Marked response: > 10 µg/mL

Exam item: Record request: IC50 value, item O=C(NCc1nnc(NCc2nc3ccccc3c(=O)[nH]2)n1-c1ccccc1)c1ccccc1F
Marked response: ~10 µg/mL

Exam item: Name the reported IC50 value associated with the molecule COc1ccc(C2C(C(=O)c3ccc(Cl)cc3)=C(O)C(=O)N2CCN2CCOCC2)cc1 (centres unmarked)
Marked response: > 10 µg/mL

Exam item: Need IC50, item CC(C)c1ccc(C2C(C(=O)c3ccc(F)cc3)=C(O)C(=O)N2CCN2CCOCC2)cc1 (centres unmarked)
Marked response: > 10 µg/mL

Exam item: I have this molecule here, COC(=O)c1ccc(NC(=O)CC2C(=O)N(c3ccccc3)C(=O)N2Cc2ccc3c(c2)OCO3)cc1 (centres unmarked) , and I need its recorded IC50.
Marked response: > 10 µg/mL

Exam item: Give the measured IC50 of COC(=O)c1sc(N2C(=O)C(O)=C(C(=O)c3ccccc3)C2c2ccc(C)cc2)nc1C (centres unmarked) .
Marked response: > 10 µg/mL

###

target: murine Syk tyrosine kinase protein (GST:Syk 6-242) (Mus musculus, UniProt P48025); construct: made in house; experiment: ADA method: displacement of the binding of scFv G4G11 with Syk (ELISA); conditions: small molecules at 10 μM, scFv G4G11 100 nM; read-out: In vit. inhib.: mean inhibition % of the binding of scFv G4G11 with Syk in the ADA method
So I've got a bunch of compounds here, and I need their inhibition at 10 µM values.
Kindly answer with a numeric value in %, unit omitted.

Exam item: Quick check: inhibition at 10 µM on murine Syk tyrosine kinase protein (GST:Syk 6-242) (Mus musculus, UniProt P48025), item Cc1ccc(C(=O)C(C)OC(=O)c2ccc3c(c2)C(=O)C(c2ccc(C)c(Cl)c2)C3=O)cc1 (centres unmarked) ?
Marked response: 49.5

Exam item: Could you share what inhibition at 10 µM was measured for COc1cc(C2C(C(=O)c3ccc(C)o3)=C(O)C(=O)N2CCN(C)C)cc(OC)c1OC (centres unmarked) , tested on murine Syk tyrosine kinase protein (GST:Syk 6-242) (Mus musculus, UniProt P48025)?
Marked response: 46

Exam item: What is its inhibition at 10 µM for murine Syk tyrosine kinase protein (GST:Syk 6-242) (Mus musculus, UniProt P48025)? Entry: COc1ccc(C2C(C(=O)c3ccc(C)cc3)=C(O)C(=O)N2CCN2CCOCC2)c(OC)c1 (centres unmarked)
Marked response: 50

Exam item: Lab note: need inhibition at 10 µM for COc1ccc(OC)c(C2C(C(=O)c3ccccc3)=C(O)C(=O)N2CCCn2ccnc2)c1 (centres unmarked) on murine Syk tyrosine kinase protein (GST:Syk 6-242) (Mus musculus, UniProt P48025), anyone have it?
Marked response: 77.5

Exam item: Request: inhibition at 10 µM, test system murine Syk tyrosine kinase protein (GST:Syk 6-242) (Mus musculus, UniProt P48025), entry COc1cccc2cc(C(=O)C3=C(O)C(=O)N(CCCn4ccnc4)C3c3ccccn3)oc12 (centres unmarked)
Marked response: 37.5

Exam item: Which inhibition at 10 µM is reported with murine Syk tyrosine kinase protein (GST:Syk 6-242) (Mus musculus, UniProt P48025) for this entry: COc1ccc(NC(=O)CSc2nc3ccccc3c(=O)n2Cc2ccco2)c(OC)c1 ?
Marked response: 30

Exam item: Query for murine Syk tyrosine kinase protein (GST:Syk 6-242) (Mus musculus, UniProt P48025): what inhibition at 10 µM does the record show for O=C(C1=C(O)C(=O)N(CCCN2CCOCC2)C1c1ccccc1F)c1ccc2c(c1)OCO2 (centres unmarked) ?
Marked response: 30

Exam item: Entry Cc1ccc(-c2nnc(Nc3cccc(O)c3)c3ccccc23)cc1S(=O)(=O)NC(C)(C)CO , system murine Syk tyrosine kinase protein (GST:Syk 6-242) (Mus musculus, UniProt P48025): what inhibition at 10 µM was measured?
Marked response: 32

Exam item: Provide the documented inhibition at 10 µM with murine Syk tyrosine kinase protein (GST:Syk 6-242) (Mus musculus, UniProt P48025) as the system for COc1ccc(C)cc1NC(=O)CN(c1ccc(C)cc1)S(=O)(=O)c1ccc(OC)c(OC)c1
Marked response: 49

Exam item: Item: COC(=O)c1ccccc1-c1ccc(/C=C2/SC(=S)N(Cc3ccccc3)C2=O)o1 Test system: murine Syk tyrosine kinase protein (GST:Syk 6-242) (Mus musculus, UniProt P48025) Read-out: inhibition at 10 µM Value: ?
Marked response: 81

Exam item: What measured inhibition at 10 µM is associated with CCOC(=O)c1c(-c2ccccc2)oc2ccc(OC(C(=O)O)c3ccccc3)cc12 (centres unmarked) on murine Syk tyrosine kinase protein (GST:Syk 6-242) (Mus musculus, UniProt P48025)?
Marked response: 40
